test: Half life in human plasma at 0.7 uM; format: ADME, cell-free
Measured Parameter: half-life at 0.7 µM (min)

[[record]]
compound = "Nc1ncnc2c1ncn2[C@@H]1O[C@H](COP(=O)(O)OP(=O)(O)OP(=O)(O)OP(=O)(O)OC[C@H]2O[C@@H](n3cnc4c(N)ncnc43)[C@H](O)[C@@H]2O)[C@@H](O)[C@H]1O [DIADENOSINE TETRAPHOSPHATE]"
measured = 2


====

biological target: P2Y purinoceptor 12 (Homo sapiens, UniProt Q9H244); assay: Agonist activity at human platelet P2Y12 receptor assessed as decrease in intra-platelet phosphorylated VASP by flow cytometric analysis
Sequence (Q9H244 whole entry): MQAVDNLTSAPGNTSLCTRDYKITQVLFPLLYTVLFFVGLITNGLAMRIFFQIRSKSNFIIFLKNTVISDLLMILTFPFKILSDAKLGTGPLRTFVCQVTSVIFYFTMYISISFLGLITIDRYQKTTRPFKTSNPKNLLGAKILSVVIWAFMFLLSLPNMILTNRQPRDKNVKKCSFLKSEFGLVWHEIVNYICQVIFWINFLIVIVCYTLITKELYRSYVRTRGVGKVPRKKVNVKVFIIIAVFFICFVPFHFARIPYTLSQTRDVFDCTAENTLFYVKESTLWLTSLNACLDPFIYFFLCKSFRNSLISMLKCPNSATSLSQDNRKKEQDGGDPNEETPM
Calls of active or inactive are those of the source. The calls are words filed in the database; no cut-off is given here.
Measured Parameter: Activity

[[record]]
compound = "CSc1nc(N)c2ncn([C@@H]3O[C@H](COP(=O)(S)OP(=O)(O)C(Cl)P(=O)(O)OP(=O)(S)OC[C@H]4O[C@@H](n5cnc6c(N)nc(SC)nc65)[C@H](O)[C@@H]4O)[C@@H](O)[C@H]3O)c2n1 (mixture of isomers)"
measured_parameter = "Activity"
measured = "inactive"

[[record]]
compound = "CSc1nc(N)c2ncn([C@@H]3O[C@H](COP(=O)(O)OP(=O)(O)OP(=O)(O)OP(=O)(O)OC[C@H]4O[C@@H](n5cnc6c(N)nc(SC)nc65)[C@H](O)[C@@H]4O)[C@@H](O)[C@H]3O)c2n1"
measured_parameter = "Activity"
measured = "inactive"


Measured values drawn from ChEMBL document CHEMBL3745686 for this set.
